System: Vero E6 infected with SARS-CoV-2
test-description: inhibition of SARS-CoV-2 cytopathic effect; higher = more antiviral protection, active = above 15
condition-details: 1 nM; 48 h
readout: inhibition of SARS-CoV-2 cytopathic effect (%)
Give bare numbers, in %.

Examples from the recorded data:
compound | reported
N#Cc1cn([C@@H]2O[C@H](CO)[C@@H](O)[C@H]2O)c2ncnc(N)c12 | 0.31
CC(C)n1cnc2c(NCCc3ccc(O)cc3)nc(-c3csc4ccccc34)nc21 | 1.26
Nc1nc2[nH]cnc2c(=S)[nH]1 | -0.56
CCC(CC)(CC(=O)Nc1cccc(/C=C/c2nc(C3CCC3)cs2)c1)C(=O)O | -1.61
COc1ccc(/C=C2\CCCN=C2c2cccnc2)c(OC)c1 | -0.63
O=C(CNC(=O)c1cccc(C(F)(F)F)c1)N[C@@H]1CCN(Cc2ccc(Cl)cc2)C1 | -1.08
COC(=O)c1cnn(-c2ccc(F)cc2F)c1/C=N/NC(=S)NC(C)(C)C | -1.1
NC(=O)c1nc(Nc2ccccc2)sc1NC(=O)C1CCCCC1 | 1.69
CCC(CC)Nc1nc(C)c(-c2ccc(OC(F)(F)F)cc2OC)nc1OC | 1.38
O=C(Nc1ccccc1)c1cc([N+](=O)[O-])ccc1Cl | 1.34

State recorded inhibition of SARS-CoV-2 cytopathic effect for all listed compounds.
1. O=C(O)CCCCN(CCc1ccccc1OCc1ccc(CCc2ccccc2)cc1)Cc1ccc(C(=O)O)cc1
2. CCN1CCC[C@H]1CNC(=O)c1c(OC)ccc(Br)c1OC [remoxipride]
3. CC(=O)/N=c1/[nH]c(C)c(-c2ccc(Cl)c(S(=O)(=O)NCCO)c2)s1
4. N[C@@H](CCNCc1ccc(Cl)cc1)C(=O)N1CCCCC1
5. Cc1cccc(Nc2ccncc2S(=O)(=O)NC(=O)NC(C)C)c1 [torasemide]
6. CCc1cnn2c(NCc3ccc[n+]([O-])c3)cc(N3CCCC[C@H]3CCO)nc12
7. CCOC(=O)[C@H]1O[C@@H]1C(=O)N[C@@H](CC(C)C)C(=O)NCCC(C)C
8. Cc1cncc(CN2CCC(=C3c4ccc(Cl)cc4CCc4cccnc43)CC2)c1

1: 1.27; 2: -2.39; 3: 0.03; 4: 0.82; 5: -0.3; 6: 1.49; 7: 0.43; 8: -0.79

State recorded inhibition of SARS-CoV-2 cytopathic effect for all listed compounds.
1. C[C@]12CCC(=O)C=C1CC[C@@H]1[C@@H]2[C@@H](O)C[C@@]2(C)[C@H]1CC[C@]2(O)C(=O)COP(=O)(O)O [hydrocortisone-phosphate]
2. Nc1nc2c(cnn2CCc2ccccc2)c2nc(-c3ccco3)nn12
3. CN(C)C(=O)Oc1ccc[n+](C)c1
4. Oc1cc(O)c(Cl)cn1
5. CC(C)(C)C(=O)C(Oc1ccc(Cl)cc1)n1ccnc1 (configuration not stated)
6. O=C(Nc1cccnc1)N1CCC(Cc2cccc(Oc3ccc(C(F)(F)F)cn3)c2)CC1

1: 1.12; 2: 1.74; 3: 4.06; 4: -0.94; 5: -1.08; 6: 0.55

State recorded inhibition of SARS-CoV-2 cytopathic effect for all listed compounds.
1. COc1cccc(OC)c1OCCNC[C@H]1COc2ccccc2O1
2. CCOC(CN1CCN(CC(C)C(=O)c2ccccc2)CC1)c1ccccc1 (configuration not stated)
3. C[C@H]1COC2=C1C(=O)C(=O)c1c2ccc2c1CCCC2(C)C
4. C[C@@]12CC[C@@H]3[C@@](CC[C@H]4[C@@]3(C)CCC[C@@]4(C)C(=O)O)(CC1=O)C2
5. CCCc1c(OCCCOc2ccc(OCC(=O)O)cc2)ccc(C(C)=O)c1O
6. O=NN(CCCl)C(=O)NC1CCCCC1

[-0.3, -5.33, 1.45, -1.01, 3.84, -1.8]
